- Procedure text: soluble on expression in E. coli; label from the status in PepcDB or PDB records
Measured parameter: soluble on expression in E. coli

MAHHHHHHMPTASASREPLVPSINFSMVCPGVYRSGYPTKKNYSFLCALRLRSILYLCPEDYAESNLKFCEENGIHVLRFPTEGNKEPFCDVSEPLMHRILSAICDTRNLPLLIHCNKGKHRTGTVVACLRHLQGWSLVSIFEEYKRFASDKARVGDQQYVELYHPIVKLTPPFVALWVTVTPRVTLVTSDRELMEAEAMQLGYSLLAPDKHLMKNGSSTNKSTAPTAAAASGAASVTAAPAAAAAATAGSGPTVAVSTSGPSAAGAMQQQQPSQPVTSAASASASNSGHSLAPSLMATAATPAAADR: not soluble
MSLNFTALDFETANTHKTSICAVGMAIVEDGKVVKTISKLIKPVPDFYSYWNVQIHGITPDMTADAPYFIDVWQELKQYIDYSTLVAHNAAFDVGALRSILTTHEVSFPKTDYFCSCSVSRKVFKEIENHKLSTVCRHIDVPLNHHEAESDAIGAAQIIIKAGERLGANSIEELMAMLKMKLKVEGHHHHHH: not soluble
